System: primary human airway basal cells (HBEC, luciferase-transduced)
Test: proliferation (luciferase bioluminescence) Z score relative to plate mean; higher = more proliferation / more cells, active = 1.96 or more
Test parameters: donor: 1; 0.5 µM; library: ENZO Libraries; 4 days
Could you label it fulfilled if measured proliferation is -0.3 or higher, and not fulfilled otherwise?

Problem: Is the recorded value of proliferation equal to or greater than -0.3 for this molecule? O=C(O)CNC(=O)C(CS)Cc1ccccc1 (racemic)
Solution: fulfilled

Problem: Follow-up item: O=c1cc(-c2ccc(O)cc2)oc2cc(O)cc(O)c12
Solution: fulfilled

Problem: Follow-up item: CC(C)C[C@H](NC(=O)[C@H]1O[C@@H]1C(=O)O)C(=O)NCCCCN=C(N)N
Solution: fulfilled

Problem: Follow-up item: O=c1cc(N2CCOCC2)oc2c(-c3ccccc3)cccc12
Solution: not fulfilled

Problem: Follow-up item: Oc1cc(O)cc(/C=C/c2ccc(O)c(O)c2)c1
Solution: fulfilled

Problem: Follow-up item: C=CC(=O)c1ccc2ccccc2c1
Solution: fulfilled

Problem: Follow-up item: CC(C)C[C@H](NC(=O)N[C@H](C(=O)N[C@@H](CCC(N)=O)C(=O)N[C@@H](C)C=O)[C@@H]1CCNC(=N)N1)C(=O)O
Solution: not fulfilled

---

System: primary human airway basal cells (HBEC, luciferase-transduced)
Test: proliferation (luciferase bioluminescence) Z score relative to plate mean; higher = more proliferation / more cells, active = 1.96 or more
Test parameters: donor: 1; 0.5 µM; library: ENZO Libraries; 4 days
So I've got a bunch of compounds here, and I need their proliferation values.
// return a plain number; no unit text

Problem: Which proliferation value belongs to CCCC(CCC)C(=O)NO [Valproic acid hydroxamate] ?
Solution: -0.292

Problem: Follow-up item: NCCCC[C@H](N[C@@H](CCc1ccccc1)C(=O)O)C(=O)N1CCC[C@H]1C(=O)O [Lisinopril]
Solution: -0.405

Problem: Follow-up item: O=C(O)c1ccnc(C(=O)O)c1 [24-Pyridinedicarboxylic Acid]
Solution: 0.171

Problem: Follow-up item: NC(=O)c1cccc(-c2cccc(OC(=O)NC3CCCCC3)c2)c1
Solution: 0.0752

Problem: Follow-up item: C=C(C)[C@@H](CC=C(C)C)C[C@@]12C[C@@H](CC=C(C)C)C(C)(C)[C@@](CC=C(C)C)(C(=O)C(C(=O)c3ccc(O)c(O)c3)=C1O)C2=O [Garcinol]
Solution: -0.468

---

Tested on: primary human airway basal cells (HBEC, luciferase-transduced)
Test: proliferation (luciferase bioluminescence) Z score relative to plate mean; higher = more proliferation / more cells, active = 1.96 or more
Test parameters: donor: 1; 5 µM; library: ENZO Libraries; 4 days
Allowed answers: active, inactive

Problem: Outcome logged for CCOC(=O)[C@H](CCc1ccccc1)N[C@@H](C)C(=O)N1CCC[C@H]1C(=O)O [Enalapril] in this assay:
Solution: inactive

Problem: Follow-up item: O=c1c(-c2ccc(O)cc2)coc2cc(O)ccc12 [Daidzein]
Solution: inactive

Problem: Follow-up item: N#C/C(=C\c1ccc(O)c(O)c1)C(=O)Nc1ccccc1
Solution: inactive

Problem: Follow-up item: O=c1oc(Cl)c(Cl)c2ccccc12 [34-Dichloroisocoumarin]
Solution: inactive

Problem: Follow-up item: O=c1cc(-c2ccc(O)cc2)oc2cc(O)cc(O)c12 [Apigenin]
Solution: active

Problem: Follow-up item: O=C(CCCCCCC(=O)NO)NO [Suberoyl bis-hydroxamic acid]
Solution: inactive

Problem: Follow-up item: Cn1cnc2c(NCc3ccccc3)nc(NCCO)nc21 [Olomoucine]
Solution: inactive

Problem: Follow-up item: NCCCC[C@H](N[C@@H](CCc1ccccc1)C(=O)O)C(=O)N1CCC[C@H]1C(=O)O [Lisinopril]
Solution: inactive

Problem: Follow-up item: O=C(O)c1cc(NCc2cc(O)ccc2O)ccc1O [2-Hydroxy-5-(25-dihydroxybenzylamino)benzoic acid]
Solution: inactive

Cited source for all entries: the supplement of paper PMC12045047
